Assay system: the molecule itself
Assay notes: SAXS
Measure name: stoichiometry N

The protein listed as PF1291 (phosphoesterase) (natural protein) MVYVAVLANIAGNLPALTAALSRIEEMREEGYEIEKYYILGNIVGLFPYPKEVIEVIKDLTKKENVKIIRGKYDQIIAMSDPHATDPGYIDKLELPGHVKKALKFTWEKLGHEGREYLRDLPIYLVDKIGGNEVFGVYGSPINPFDGEVLAEQPTSYYEAIMRPVKDYEMLIVASPMYPVDAMTRYGRVVCPGSVGFPPGKEHKATFALVDVDTLKPKFIEVEYDKKIIEERIRAEGLPEEIIKILYHGGRP has a reported stoichiometry N of 4
